Every entry's value here was drawn from the supplement of paper PMC6953052.

system: CbCln3 Δex7/8/Δex7/8 GFP-LC3 cerebellar neuronal cells; test: fraction of GFP-LC3-positive cells (≥5 vesicles/cell); higher = more autophagosome accumulation
Whole data set: some 1,700 compounds, median “fraction of GFP-LC3-positive cells (≥5 vesicles/cell)” near 0.43, cut for the highest 2% near 0.81. The sample as a whole holds a higher share of the highest values than the screen did.
Parameter class (string): assigned from measured fraction of GFP-LC3-positive cells. Ranges: low interval = under 0.4, middle interval = from 0.4 up to 0.5, high interval = 0.5 and over

stdin: State the class of the molecule shown: Cc1cc(=O)n(-c2ccccc2)n1C [Antipyrine]
stdout: low interval

stdin: State the class of the molecule shown: CC[N+](CC)(CC)CCC(O)(c1ccccc1)C1CCCCC1.[Cl-] (centres undefined) [Tridihexethyl chloride]
stdout: middle interval

stdin: State the class of the molecule shown: CC(=O)OC(C)C[N+](C)(C)C.[Cl-] (centres undefined) [Methacholine chloride]
stdout: low interval

###

I'd appreciate it if you could supply fraction of GFP-LC3-positive cells values for the items below.
system: CbCln3 Δex7/8/Δex7/8 GFP-LC3 cerebellar neuronal cells; assay: fraction of GFP-LC3-positive cells (≥5 vesicles/cell); higher = more autophagosome accumulation
Over roughly 1,700 compounds, “fraction of GFP-LC3-positive cells (≥5 vesicles/cell)” has its median near 0.43; the highest 2% begin near 0.81. This excerpt belongs to a sample that is enriched for the highest values.
One number for each entry.

Below: 6 compounds and their reported fraction of GFP-LC3-positive cells.
stdin: Let me know recorded fraction of GFP-LC3-positive cells for COc1ccc2c(c1)c(CC(=O)OCC(=O)O)c(C)n2C(=O)c1ccc(Cl)cc1 [Acemetacin] , thanks.
stdout: 0.361

stdin: Let me know recorded fraction of GFP-LC3-positive cells for CCCCC/C=C\C/C=C\C/C=C\C/C=C\CCCC(=O)O[C@@H](CO)COCCCCCCCCCCCCCCCC [1-Hexadecyl-2-arachidonoyl-glycerol] , thanks.
stdout: 0.517

stdin: Let me know recorded fraction of GFP-LC3-positive cells for N=C(N)NCCC[C@H](NC(=O)[C@@H]1CCCN1C(=O)[C@H](N)Cc1ccccc1)C(=O)CCl , thanks.
stdout: 0.502

stdin: Let me know recorded fraction of GFP-LC3-positive cells for O=C1CCc2c(ccc3ccccc23)O1 [Splitomycin] , thanks.
stdout: 0.354

stdin: Let me know recorded fraction of GFP-LC3-positive cells for Clc1ccc(COC(Cn2ccnc2)c2ccc(Cl)cc2Cl)cc1.O=[N+]([O-])O (stereo not drawn) [Econazole nitrate] , thanks.
stdout: 0.353

stdin: Let me know recorded fraction of GFP-LC3-positive cells for Cl.N=C(N)NC(=O)c1nc(Cl)c(N)nc1N.O.O [Amiloride hydrochloride dihydrate] , thanks.
stdout: 0.398

Items follow; give fraction of GFP-LC3-positive cells for each.
1. CN(C)CCOC(c1ccccc1)c1ccccc1.Cl [Diphenhydramine hydrochloride]
2. Nc1ccc(S(=O)(=O)Nc2ncccn2)cc1 [Sulfadiazine]

stdout:
1. 0.531
2. 0.438

###

test system: CbCln3 Δex7/8/Δex7/8 GFP-LC3 cerebellar neuronal cells; test: fraction of GFP-LC3-positive cells (≥5 vesicles/cell); higher = more autophagosome accumulation
In all, about 1,700 compounds were measured (“fraction of GFP-LC3-positive cells (≥5 vesicles/cell)”: median about 0.43, highest 2% from about 0.81 on). The list comes from a sample in which the highest values are over-represented; it also holds close analogues and randomly drawn compounds.
I'd appreciate it if you could supply fraction of GFP-LC3-positive cells values for the items below.

Below: 3 compounds and their reported fraction of GFP-LC3-positive cells.
stdin: Let me know recorded fraction of GFP-LC3-positive cells for NS(=O)(=O)c1cc(C(=O)O)c(NCc2ccco2)cc1Cl [Furosemide] , thanks.
stdout: 0.511

stdin: Let me know recorded fraction of GFP-LC3-positive cells for CCCCCCCCCCCCCCCCCCc1ccc(C(=O)/C=C/C(=O)O)cc1 , thanks.
stdout: 0.48

stdin: Let me know recorded fraction of GFP-LC3-positive cells for CS(=O)(=O)Nc1ccc([N+](=O)[O-])cc1Oc1ccccc1 [Nimesulide] , thanks.
stdout: 0.391

Items follow; give fraction of GFP-LC3-positive cells for each.
1. NC[C@H]1O[C@H](O[C@H]2[C@H](O)[C@@H](O[C@H]3O[C@H](CO)[C@@H](O)[C@H](N)[C@H]3O)[C@H](N)C[C@@H]2N)[C@H](N)C[C@@H]1O [Tobramycin]
2. NC1CONC1=O (stereo in doubt) [(S)-(-)-Cycloserine]
3. CCCSc1ccc2[nH]c(NC(=O)OC)nc2c1 [Albendazole]
4. CC(C(O)c1ccc(O)cc1)N1CCC(Cc2ccccc2)CC1.O=C(O)C(O)C(O)C(=O)O (stereo not given) [Ifenprodil tartrate]
5. CCOC(=O)/N=c1/c[n+](N2CCOCC2)[n-]o1 [Molsidomine]

stdout:
1. 0.5
2. 0.414
3. 0.899
4. 0.481
5. 0.473

Items follow; give fraction of GFP-LC3-positive cells for each.
1. CCCCC[C@H](O)/C=C/C=C/C=C/[C@@H](O)C/C=C\CCCC(=O)O [8(S),15(S)-DiHETE all trans]
2. CC(=N)NCc1cccc(CN)c1
3. CCCc1c(OCCCCc2nnn[nH]2)ccc(C(C)=O)c1O
4. CN(C)CCCN1c2ccccc2Sc2ccccc21.Cl [Promazine hydrochloride]
5. Nc1ncn(C2O[C@H](CO)[C@@H](O)[C@H]2O)c(=O)n1 (stereo not given in full) [Azacytidine-5]

stdout:
[0.456, 0.371, 0.398, 0.434, 0.861]

Items follow; give fraction of GFP-LC3-positive cells for each.
1. CCCCCCCC/C=C/CCCCCCCCC(=O)O [10(Z)-Nonadecenoic acid]
2. COc1cc2nc(N3CCN(C(=O)C4CCCO4)CC3)nc(N)c2cc1OC.Cl (stereo not given) [Terazosin hydrochloride]
3. CC(C)NC[C@H](O)COc1cccc2ccccc12.Cl [(S)-propranolol hydrochloride]
4. CN(C)CC/C=C1\c2ccccc2COc2ccccc21.Cl [Doxepin hydrochloride]

stdout:
1: 0.551; 2: 0.396; 3: 0.275; 4: 0.567
